# protocolSummary: physchem
# statedConditions: pH 7.8
# Description: Dissociation constant, pKa of the compound at pH 7.8
valueKind: pKa

Below: 4 compounds and their reported pKa.
Cc1ccc(C(=O)O)cc1 [4-METHYLBENZOIC ACID]; 3.44
O=C(O)c1c(O)cccc1O; 5.1
O=C(O)c1cccc(Cl)c1; 3.98
O=C(O)c1ccc(Br)cc1; 3.82

Okay, now this compound:
The compound listed as O=C(O)c1cc(O)ccc1O [GENTISIC ACID] has a reported pKa of 4.83

###

# Tested on: Colon
# protocolSummary: Drug absorption in anesthetized rat colon at pH 6.8
# Assay type: ADME, tissue-based
# statedConditions: in vivo
Measured log%Abs values are reported for all entries that follow.

Below: 5 compounds and their reported log%Abs.
CN[C@@H](C)[C@H](O)c1ccccc1; 0.95
CCC(=O)c1ccc(O)cc1; 1.66
Nc1ccccc1; 1.64
O=[N+]([O-])c1ccccc1O [NITROPHENOLATE]; 1.74
Cc1c(N(C)C)c(=O)n(-c2ccccc2)n1C; 1.32

Record O=C(O)c1cc([N+](=O)[O-])ccc1O / Colon, log%Abs recorded as 0.3

Record Nc1cccc([N+](=O)[O-])c1 / Colon, log%Abs recorded as 1.68

Record O=C(O)c1ccccc1 / Colon, log%Abs recorded as 1.28

Record C=C[C@H]1C[N@@]2CC[C@H]1C[C@H]2[C@H](O)c1ccnc2ccc(OC)cc12 / Colon, log%Abs recorded as 1.3

Record CCCCC1C(=O)N(c2ccccc2)N(c2ccccc2)C1=O / Colon, log%Abs recorded as 1.58

Record CN1CC[C@]23CCCC[C@H]2[C@H]1Cc1ccc(O)cc13 / Colon, log%Abs recorded as 1.11

Record Cc1ccc(N)cc1 / Colon, log%Abs recorded as 1.71

###

# protocolSummary: physchem
# Description: Dissociation constant, pKa of the compound
valueKind: pKa

Below: 4 compounds and their reported pKa.
O=C(O)c1cc(Br)cc(Br)c1O; 2.26
O=C(O)c1ccc(Cl)c(Cl)c1; 3.66
O=C(O)c1cc([N+](=O)[O-])ccc1O; 2.32
O=C(O)c1cccc(I)c1; 4

The compound listed as O=C(O)c1cc(Cl)cc(Cl)c1O has a reported pKa of 2.3

The compound listed as O=C(O)c1cc(Cl)ccc1O [5-CHLOROSALICYLIC ACID] has a reported pKa of 2.63

The compound listed as O=C(O)c1cc(I)cc(I)c1O has a reported pKa of 2.33

###

# statedConditions: octanol/water
# Description: Octanol-aqueous phase distribution coefficient, log D of the compound
# logD binned as A (below -2), B (-2 to below -1), C (-1 or more)

Example entries and their recorded answers appear below.
O=C(O)c1ccc(Cl)c(Cl)c1; C
O=C(O)c1ccc(Br)cc1; C
O=C(O)c1cccc([N+](=O)[O-])c1; A

In plain terms, what class is O=C(O)c1ccc(I)cc1 ?
C

In plain terms, what class is O=C(O)c1cccc(O)c1 [3-HYDROXYBENZOIC ACID] ?
A

In plain terms, what class is O=C(O)c1ccccc1Cl ?
A

In plain terms, what class is O=C(O)c1ccc([N+](=O)[O-])cc1 ?
A

In plain terms, what class is O=C(O)c1cc([N+](=O)[O-])cc([N+](=O)[O-])c1O ?
A

In plain terms, what class is O=C(O)c1cccc(Cl)c1 ?
B

In plain terms, what class is O=C(O)c1cccc(I)c1 ?
C

In plain terms, what class is O=C(O)c1ccccc1O ?
A

In plain terms, what class is O=C(O)c1cccc(Br)c1 ?
B

In plain terms, what class is Cc1ccc(C(=O)O)cc1 ?
A
